Molecular target: JARID1B (Homo sapiens, UniProt Q9UGL1)
Construct: The FLAG tagged full length JARID1B enzyme was expressed in Sf21 insect cells using FLAG-JARID1B baculoviruses; FLAG (N); made in house; host or cells: Sf21 insect cells (baculovirus)
Sequence (Q9UGL1 whole entry): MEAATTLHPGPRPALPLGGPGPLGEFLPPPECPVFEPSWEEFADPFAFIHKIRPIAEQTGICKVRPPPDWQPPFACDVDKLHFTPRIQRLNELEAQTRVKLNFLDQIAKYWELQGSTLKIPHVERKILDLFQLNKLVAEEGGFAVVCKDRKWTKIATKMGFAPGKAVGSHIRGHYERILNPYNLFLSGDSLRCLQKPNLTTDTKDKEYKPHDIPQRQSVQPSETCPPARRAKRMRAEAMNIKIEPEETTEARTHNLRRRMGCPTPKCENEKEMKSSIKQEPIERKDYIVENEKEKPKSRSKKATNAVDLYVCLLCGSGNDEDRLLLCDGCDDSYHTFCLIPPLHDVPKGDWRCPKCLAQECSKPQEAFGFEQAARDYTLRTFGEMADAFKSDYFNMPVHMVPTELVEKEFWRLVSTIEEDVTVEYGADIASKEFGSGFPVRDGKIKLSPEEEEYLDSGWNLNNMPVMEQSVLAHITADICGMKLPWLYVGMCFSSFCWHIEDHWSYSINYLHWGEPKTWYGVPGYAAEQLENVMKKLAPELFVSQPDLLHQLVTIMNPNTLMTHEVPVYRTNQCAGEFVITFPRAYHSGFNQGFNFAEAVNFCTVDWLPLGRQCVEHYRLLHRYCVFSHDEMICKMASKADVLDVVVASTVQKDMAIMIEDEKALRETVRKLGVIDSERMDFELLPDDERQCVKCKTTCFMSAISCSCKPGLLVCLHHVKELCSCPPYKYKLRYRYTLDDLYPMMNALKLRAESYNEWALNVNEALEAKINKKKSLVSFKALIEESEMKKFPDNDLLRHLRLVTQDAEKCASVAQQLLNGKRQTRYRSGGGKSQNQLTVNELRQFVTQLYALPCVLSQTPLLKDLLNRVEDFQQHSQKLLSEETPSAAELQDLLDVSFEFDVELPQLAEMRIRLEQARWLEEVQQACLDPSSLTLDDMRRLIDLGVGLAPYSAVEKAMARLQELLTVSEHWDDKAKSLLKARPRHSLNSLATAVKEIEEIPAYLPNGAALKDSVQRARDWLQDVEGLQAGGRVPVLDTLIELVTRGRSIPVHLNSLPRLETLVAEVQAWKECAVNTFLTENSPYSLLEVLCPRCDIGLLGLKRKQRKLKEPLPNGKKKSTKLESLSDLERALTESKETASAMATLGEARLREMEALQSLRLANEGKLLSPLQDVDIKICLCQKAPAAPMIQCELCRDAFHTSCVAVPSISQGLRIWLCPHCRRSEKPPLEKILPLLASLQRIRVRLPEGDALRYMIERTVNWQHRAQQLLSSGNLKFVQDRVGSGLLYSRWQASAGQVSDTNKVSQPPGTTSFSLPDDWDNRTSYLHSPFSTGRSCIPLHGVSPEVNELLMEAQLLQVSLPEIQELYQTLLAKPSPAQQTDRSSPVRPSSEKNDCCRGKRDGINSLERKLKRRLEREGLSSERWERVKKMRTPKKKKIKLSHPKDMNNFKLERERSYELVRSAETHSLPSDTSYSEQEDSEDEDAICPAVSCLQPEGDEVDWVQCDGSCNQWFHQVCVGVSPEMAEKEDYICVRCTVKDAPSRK
Test: FLAG-JARID1B histone demethylase assay with AlphaScreen detection (HTS and dose response)
Type: biochemical
Conditions: high-throughput screen, compound 20 μM, standard demethylase conditions (10 μM α-KG, 50 μM Fe (II)); read-out: Inhibitory effect (percent)
Where a name gives a salt, the structure may show the parent alone.
endpoint.label: inhibition at 20 µM

Exercise: Please give the documented inhibition at 20 µM of CN(C)CCCN1c2ccccc2Sc2ccc(C(F)(F)F)cc21 [YU034370, TRIFLUPROMAZINE HYDROCHLORIDE, reference compound]
Key: 66%

Exercise: Determine from records and report inhibition at 20 µM for N[C@@H](Cc1ccc(O)c(O)c1)C(=O)O [YU034332, LEVODOPA, reference compound]
Key: 68.8%

Exercise: Give the reported inhibition at 20 µM for this molecule. Cc1ccc(C(C#N)=Cc2ccc(N3CCOCC3)o2)cc1 (single isomer, unassigned)
Key: 43.1%

Exercise: Note down inhibition at 20 µM recorded for CC(=O)Oc1c([N+](=O)[O-])cc2c(c1Br)CCCC2
Key: 32.3%

Exercise: Return inhibition at 20 µM (reported value) for this molecule: C=CCNCCCCOc1cccc(OCC)c1
Key: 36.5%

---

Target: JARID1B (Homo sapiens, UniProt Q9UGL1)
Construct: The FLAG tagged full length JARID1B enzyme was expressed in Sf21 insect cells using FLAG-JARID1B baculoviruses; FLAG (N); made in house; host or cells: Sf21 insect cells (baculovirus)
Test: FLAG-JARID1B histone demethylase assay with AlphaScreen detection (HTS and dose response)
Assay type: biochemical
Conditions: high-throughput screen, compound 20 μM, standard demethylase conditions (10 μM α-KG, 50 μM Fe (II)); read-out: Inhibitory effect (percent)
Use 40% as the dividing line for inhibition at 20 µM, with the line itself on the t side and lower values as f.

Exercise: For this molecule, is measured inhibition at 20 µM 40% or higher? Cc1c(C(=O)O)cccc1-c1ccc(C=C[N+](=O)[O-])o1 (single isomer, unassigned) [YU147801]
Key: t

Exercise: Test whether the molecule O=c1c2ccccc2[se]n1-c1ccccc1 [YU034226, EBSELEN, reference compound] records inhibition at 20 µM of 40% or higher.
Key: t

Exercise: Hello, I need to know if CCCN1CCN(C(=O)c2ccncc2)CC1 [YU145702] has measured inhibition at 20 µM not below 40%. Thanks!
Key: f

Exercise: Is reported inhibition at 20 µM greater than or equal to 40% here: CN(C)C(=S)SSC(=S)N(C)C [YU034426, THIRAM, reference compound]
Key: t

Exercise: Determine whether this molecule has inhibition at 20 µM no lower than 40%: Fc1cccc(Cl)c1CNn1cnnc1S [YU146768]
Key: f

Exercise: Check if inhibition at 20 µM >= 40% (inclusive). Item: CCOc1cc(Cl)c(S(=O)(=O)n2ccnc2)cc1Cl [YU152583]
Key: t

Exercise: Please check the record O=c1c2cc(O)c(O)cc2oc2cc(O)c([C@@H]3O[C@H](CO)[C@@H](O)[C@H](O)[C@H]3O)c(O)c12 [YU155356, MANGIFERIN, reference compound] and state if its inhibition at 20 µM is at or above 40%.
Key: t

Exercise: Decide: inhibition at 20 µM of Cc1ccsc1CNn1cnnc1S [YU145432] >= 40%?
Key: f

---

Biological target: JARID1B (Homo sapiens)
Construct: The FLAG tagged full length JARID1B enzyme was expressed in Sf21 insect cells using FLAG-JARID1B baculoviruses; FLAG (N); made in house; host or cells: Sf21 insect cells (baculovirus)
Test: FLAG-JARID1B histone demethylase assay with AlphaScreen detection (HTS and dose response)
Assay type: biochemical
Settings: high-throughput screen, compound 20 μM, standard demethylase conditions (10 μM α-KG, 50 μM Fe (II))
Would you mind telling me the reported Inhibitory effect (percent) of each entry?

Exercise: Please indicate Inhibitory effect (percent) recorded for CARMINIC ACID [YU155214, reference compound]
Key: 65.23%

Exercise: Return the recorded Inhibitory effect (percent) value; entry: TYROTHRICIN [YU034048, reference compound]
Key: 68.66%

Exercise: Recall and state the measured Inhibitory effect (percent) for CALCEIN [YU034124, reference compound] .
Key: 60.48%

Exercise: Supply measured Inhibitory effect (percent) of BACITRACIN [YU033699, reference compound] in your reply.
Key: 74.07%

---

Assay: AlphaScreen counterscreen against bio-H3K4me2 peptide in the absence of enzyme (artifact signal);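 also: counterscreen run without enzyme against bio-H3K4me2 peptide to remove false positive hits from the JARID1 demethylase AlphaScreen screen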
Settings: counterscreen, bio-H3K4me2 peptide, no enzyme
endpoint.label: Artifact signal: effect of the compound when it is incubated with bio-H3K4me2 peptide

Exercise: Could you please provide reported Artifact signal: effect of the compound when it is incubated with bio-H3K4me2 peptide for Cn1c(=O)n(C)c2cc(S(=O)(=O)NNc3ccccc3)ccc21 ? Thanks!
Key: 0.54

Exercise: Please list Artifact signal: effect of the compound when it is incubated with bio-H3K4me2 peptide recorded for the compound O=C(O)c1cc(O)c2c(c1)[C@H]([C@H]1c3cc(C(=O)O)cc(O)c3C(=O)c3c(O[C@@H]4O[C@H](CO)[C@H](O)[C@H](O)[C@H]4O)cccc31)c1cccc(O[C@@H]3O[C@H](CO)[C@H](O)[C@H](O)[C@@H]3O)c1C2=O (stereo in doubt) [YU155305, SENNOSIDE B, reference compound]
Key: −0.34

Exercise: Supply recorded Artifact signal: effect of the compound when it is incubated with bio-H3K4me2 peptide for N#Cc1c(NC(=O)c2cnn3cccnc23)sc2c1CCCC2 here.
Key: 1.62

Exercise: Supply reported Artifact signal: effect of the compound when it is incubated with bio-H3K4me2 peptide belonging to this compound: O=C(O[C@@H]1Cc2c(O)cc(O)cc2O[C@@H]1c1cc(O)c(O)c(O)c1-c1c([C@H]2Oc3cc(O)cc(O)c3C[C@H]2OC(=O)c2cc(O)c(O)c(O)c2)cc(O)c(O)c1O)c1cc(O)c(O)c(O)c1 (stereo in doubt) [YU155084, 2,2-BISEPIGALLO- CATECHIN DIGALLATE, reference compound]
Key: 91.60

Exercise: Item CC(=O)[O][Hg][c]1ccccc1 [YU034074, PHEN[…], ACETATE, reference compound] : provide Artifact signal: effect of the compound when it is incubated with bio-H3K4me2 peptide
Key: −10.79

---

Give inhibition at 20 µM for every item shown.
Biological target: JARID1B (Homo sapiens)
Construct: The FLAG tagged full length JARID1B enzyme was expressed in Sf21 insect cells using FLAG-JARID1B baculoviruses; FLAG (N); made in house; host or cells: Sf21 insect cells (baculovirus)
Experiment: FLAG-JARID1B histone demethylase assay with AlphaScreen detection (HTS and dose response)
Type: biochemical
Settings: high-throughput screen, compound 20 μM, IDs marked *: additional hits under reaction condition with 1 mM α-KG; read-out: Inhibitory effect (percent)
Please answer in the form of a number followed by its unit of measurement.

Exercise: Could you please provide reported inhibition at 20 µM for Cn1nnnc1SCC1=C(C(=O)O)N2C(=O)[C@H](NC(=O)C(O)c3ccccc3)C2SC1 (stereo in doubt) [YU034265, CEFAMANDOLE SODIUM, reference compound] ? Thanks!
Key: 40.5%

Exercise: State its inhibition at 20 µM for this compound: CN(C)[C@@H]1C(O)=C(C(N)=O)C(=O)[C@@]2(O)C(O)=C3C(=O)c4c(O)ccc(Cl)c4[C@@](C)(O)[C@H]3C[C@@H]12 [YU033743, AUREOMYCIN, reference compound]
Key: 90%

Exercise: Look up inhibition at 20 µM of O=C1c2ccccc2C(=O)c2c(NCCc3ccc(O)cc3)ccc(NCCc3ccc(O)cc3)c21 [YU019467, BML-266, reference compound] and report it.
Key: 42.1%

Exercise: Note inhibition at 20 µM for the compound shown: Oc1cc(O)c2c(c1)O[C@H](c1ccc(O)c(O)c1)[C@@H](O)C2 [YU033631, CIANIDANOL, reference compound]
Key: 41.5%

Exercise: Input O=c1c(O)cccc2cc(O)c(O)c(O)c12 [YU155440, PURPUROGALLIN, reference compound] , output reported inhibition at 20 µM.
Key: 42.5%

Exercise: Consider the compound S=c1[nH]cnc2nc[nH]c12 [YU033892, MERCAPTOPURINE, reference compound] and give its recorded inhibition at 20 µM.
Key: 56%

---

Target: JARID1B (Homo sapiens)
Construct: The FLAG tagged full length JARID1B enzyme was expressed in Sf21 insect cells using FLAG-JARID1B baculoviruses; FLAG (N); made in house; host or cells: Sf21 insect cells (baculovirus)
Experiment: FLAG-JARID1B histone demethylase assay with AlphaScreen detection (HTS and dose response);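 also: FLAG-tagged JARID1B at 4 nM acting on a biotinylated H3K4me3 peptide, demethylation read by AlphaScreen luminescence, with hits checked against bio-H3K4me2 without enzyme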
Format: biochemical
Details: high-throughput screen, compound 20 μM, IDs marked *: additional hits under reaction condition with 1 mM α-KG; read-out: Inhibitory effect (percent)
Counter-ions that a name gives are not always drawn.
Decision: inhibition at 20 µM compared against 50%; not below it gives 1 (yes), below it gives 0 (no).

Exercise: Check if inhibition at 20 µM >= 50% (inclusive). Item: Nc1nc2nc[nH]c2c(=S)[nH]1 [YU034024, THIOGUANINE, reference compound]
Key: 1 (yes)

Exercise: Item c1ccc2c(c1)CCCC2C1=NCCN1 (stereo not drawn) [YU034020, TETRAHYDROZOLINE HYDROCHLORIDE, reference compound] with inhibition at 20 µM of 50% or above?
Key: 1 (yes)

Exercise: Could you please find out whether CN[C@@H]1[C@H](O[C@H]2O[C@H](CO)[C@@H](N)[C@H](O)[C@H]2O)O[C@H]2C[C@@H](N)[C@H](O[C@@H]3[C@H](O)[C@@H](O)[C@H](N)C[C@@H]3N)O[C@@H]2[C@@H]1O (stereo in doubt) [YU155086, APRAMYCIN, reference compound] has inhibition at 20 µM that meets 50% or exceeds it?
Key: 0 (no)

Exercise: Answer whether inhibition at 20 µM of CC(=O)C(C)O[Si](C(C)C)(C(C)C)C(C)C (stereo not drawn) [YU035082] is greater than or equal to 50%.
Key: 1 (yes)

Exercise: Does the compound O=C(O)c1ccnc(C(=O)O)c1 [YU221215, 2,4-Pyridinedicarboxylic Acid, reference compound] have recorded inhibition at 20 µM that is 50% or more?
Key: 0 (no)

Exercise: Test whether the compound Oc1c(Cl)cc(Cl)cc1Sc1cc(Cl)cc(Cl)c1O [YU033712, BITHIONOL, reference compound] records inhibition at 20 µM of 50% or higher.
Key: 0 (no)
